ASSAY_DETAILS: Trial 000015 Part 1: pharmacokinetics after single intranasal administration
REPORTED_CONDITIONS: female, human, plasma, inhaled or intranasal, 300 ug, Cmax Median, single i.n. dose 300 μg, N = 6
*1 amine or outer side, *2 acyl side, *3 side chain or, on linkers, in order; H or OH if unused. Where a SMILES comes first, the peptide text is derived from it. Bridges are numbered along the chain shown (N, C = ends). [ ]: non-standard residue; d: D form. N(4-F-Bzl)Gly = O=C(O)CNCc1ccc(F)cc1; X1 = O=C(CCC[*:2])[*:1]
MEASURED_ENDPOINT: Cmax (ng/mL)
Only the number, expressed in ng/mL, is required.

Which value of Cmax has been reported for CC[C@H](C)[C@@H]1NC(=O)[C@H](Cc2ccc(O)cc2)NC(=O)CCCSC[C@@H](C(=O)N(CC(=O)N[C@@H](CC(C)C)C(=O)NCC(N)=O)Cc2ccc(F)cc2)NC(=O)[C@H](CC(N)=O)NC(=O)[C@H](CCC(N)=O)NC1=O [merotocin] (YIQNC[N(4-F-Bzl)Gly]LG-NH2; linker N-5 via X1) in the records?
0.148
